- Tested on: HCT-116 colon
- Assay remarks: NCI tumour cell line growth inhibition, 48 h
Value kind: TGI (µM)
State the answer as a number, implicitly in µM.

Solved cases (5 shown):
COC(=O)CCCCN=Cc1c(O)c(O)c(C(C)C)c2cc(C)c(-c3c(C)cc4c(C(C)C)c(O)c(O)c(C=NCCCCC(=O)OC)c4c3O)c(O)c12 : 4.98
Cc1nn(CN2CCN(C)CC2)c(=S)n1/N=C/c1cccc2ccccc12 : 35.6
N=C1CSC2=NC3=C(CCC/C3=C\c3ccccc3)C(c3ccccc3)N12 (stereo not given) : 13.2
Cn1cc(-c2cnc3ccc(NC(=O)Nc4ccc(F)c(Br)c4)cc3n2)cn1 : 3.75
COCOC1/C=C/CCCC#C[C@H](C)C(=O)CC1 (stereo not given in full) : 5.99

Lab book: TGI of "O=C1C(Cl)=C(N2CCN(C3=C(Cl)C(=O)c4ccccc4C3=O)CC2)C(=O)c2ccccc21" noted as 2.76

Field TGI (entry "OCCCCCNc1c2ccccc2nc2ccccc12" ) reads 21.1

"CN(C)CCNc1cc(-c2ccccc2)nc2ccccc12" yielded TGI of 18.8

###

- System: A549 NSCLC
- Assay remarks: NCI tumour cell line growth inhibition, 48 h
Below is a list of entries, each paired with its recorded TGI value.

Illustrative cases are given below, each with its answer.
CC(C)CC(=O)[O-].CC(C)CC(=O)[O-].N.N.N.N.[Co+3].[O-][Cl+3]([O-])([O-])[O-] : > 100 µM
NCC1CCN(c2nc3ccccc3c3c2CCCC3)CC1 : 24.9 µM
CCCCCCCCCCCCCC(=O)OC1CC(=O)OC1CO (stereo not given) : > 100 µM

Value of measured TGI for the entry N#CSCC1CC(O)(c2ccccc2)C(c2ccccc2)C(c2ccc(Cl)cc2)O1 (stereo not given) : 4.24 µM

Memo: "Cc1cc(N(CCOS(C)(=O)=O)CCOS(C)(=O)=O)ccc1C=Nc1ccc(-c2nc(Cc3ccccc3)sc2C)cc1" , reported TGI: 21.6 µM

###

- Tested on: RXF-631 renal
- Assay remarks: NCI tumour cell line growth inhibition, 48 h
Parameter TGI: see the listing below.

Worked examples follow.
COc1ccc(CNc2cc(OC)c(OC)c(OC)c2)cc1 : > 100 µM
COc1ccccc1C1C(C(=O)Nc2ccccc2)=C(C)NC(C)=C1C(=O)Nc1ccccc1 : > 100 µM
COc1ccc2[nH]c3c(C)c4c(c(C)c3c2c1)CN(C)CC4 : 58.4 µM

Please examine the following record next.
Note to self: TGI of "COC(=O)C[C@H]1CCC2(OCCO2)[C@]1(C)C(=O)OC" with RXF-631 renal was > 100 µM

###

- Test system: K-562 leukemia
// allowed return values: T (active), F (inactive)

Task item: For "CCOc1cccc(/C=N/NC(=O)c2ccccc2Nc2ccnc(C(F)(F)F)c2)c1O" , which call appears in the assay record?
Reply: T

Task item: Could you check what this test reported for "Cc1c(C(=O)N/N=C/c2ccc(Cl)cc2)nnn1-c1ccnc2c(C(F)(F)F)cccc12" ?
Reply: F

Task item: Hey, what did the test say about "COc1cccc(/C=N/NC(=O)c2ccccc2Nc2ccnc(C(F)(F)F)c2)c1O" ?
Reply: T

Task item: Could you check what this test reported for CSc1ccc(C2=NN(C(C)=O)C(c3cc(C)cs3)C2)cc1 (stereo not drawn) ?
Reply: F

Task item: # fetch the recorded call for "O=C1c2c(c3c4ccccc4n(CCCCCCBr)c3c3[nH]c4ccccc4c23)C(=O)N1O" here
Reply: F
